System: P. aeruginosa R590
Experimental Protocol: Chequerboard combination efficacy of adjuvant with antibiotics
Assay type: cell-based
Applied Conditions: antibiotic Tetracycline; P. aeruginosa R590
Measurement Type: Potentiation factor
One number for each entry.

Observe how each entry below is paired with its result.
> print(dat)
                                smiles.text       tested.target  data.value
1  NCCCN(CCCN)C(=O)Cc1cccc2ccccc12.O=C(O)C(F)(F)F.O=C(O)C(F)(F)F  P. aeruginosa R590           4
2  NCCCC[C@H](N)C(=O)NCCCCCCN(CCCCCCNC(=O)[C@@H](N)CCCCN)C(=O)Cc1cccc2ccccc12  P. aeruginosa R590          64
3  NCCCC[C@H](N)C(=O)NCCCCCCN(CCCCCCNC(=O)[C@@H](N)CCCCN)C(=O)CC(c1ccccc1)c1ccccc1  P. aeruginosa R590          16
4  NCCCC[C@H](N)C(=O)NCCCN(CCCNC(=O)[C@@H](N)CCCCN)C(=O)CC(c1ccccc1)c1ccccc1  P. aeruginosa R590           4

Switching to the query record.
Consider the compound shown here: NCCCC[C@H](N)C(=O)NCCCN(CCCNC(=O)[C@@H](N)CCCCN)C(=O)Cc1cccc2ccccc12 What is its recorded Potentiation factor? 4
